Molecular target: AMP-activated protein kinase, AMPK (Homo sapiens) (UniProt P54646+O43741+P54619+Q9UGJ0+Q9Y478+Q13131+Q9UGI9)
Test: AMP-dependent Kinase enzyme assay. An in vitro enzyme assay that detects ADP turnover that is directly proportional to AMPK activity. This uses naive AMPK that is activated during the assay with MK-8722
Format: functional
Design: scale not given: direction of the effect not stated beside the values
Conditions: 30 µM
Reported values of Percent Effect for individual entries
OBSERVATION_TYPE: Percent Effect

- COMPOUND: "CC(O)CN1CCN(Cc2coc(-c3ccccc3Cl)n2)CC1 (configuration not stated)"
  OBSERVATION_TYPE: "Percent Effect"
  DATA_VALUE: "-13.3%"
- COMPOUND: "O=C(NCCn1ccnc1-c1cc2n(n1)CCNC2)c1ccc(F)cc1"
  OBSERVATION_TYPE: "Percent Effect"
  DATA_VALUE: "1.27%"
- COMPOUND: "CC(=O)N1CCCN(C(=O)NC(C)Cn2ccnc2)CC1 (configuration not stated)"
  OBSERVATION_TYPE: "Percent Effect"
  DATA_VALUE: "-5.96%"
- COMPOUND: "CC(C)c1nn(C)c(Cl)c1CNCC(=O)N1CCN(C)CC1"
  OBSERVATION_TYPE: "Percent Effect"
  DATA_VALUE: "-14.6%"
- COMPOUND: "O=C(Nc1ccccn1)c1ccc(F)c(S(=O)(=O)NC2CC2)c1"
  OBSERVATION_TYPE: "Percent Effect"
  DATA_VALUE: "1.7%"
- COMPOUND: "CN1CCN(CCOc2ccc(NC(=O)c3cnc[nH]3)cc2)CC1"
  OBSERVATION_TYPE: "Percent Effect"
  DATA_VALUE: "0.519%"
- COMPOUND: "CC(C)C(C(=O)O)c1cccc(Cl)c1 (configuration not stated)"
  OBSERVATION_TYPE: "Percent Effect"
  DATA_VALUE: "-3.52%"
- COMPOUND: "Nc1nc(CCCNC(=O)c2ccccc2C2CCNC2)cs1 (configuration not stated)"
  OBSERVATION_TYPE: "Percent Effect"
  DATA_VALUE: "-5.1%"
- COMPOUND: "COc1ccccc1CCNC(=O)N(C)C(C)CS(C)(=O)=O (configuration not stated)"
  OBSERVATION_TYPE: "Percent Effect"
  DATA_VALUE: "-5.38%"
- COMPOUND: "COC(=O)CSCc1noc(-c2ccc(Cl)cc2)n1"
  OBSERVATION_TYPE: "Percent Effect"
  DATA_VALUE: "-9.28%"
- COMPOUND: "CC(NC(=O)N1CCCC1)c1ccc(S(N)(=O)=O)cc1 (configuration not stated)"
  OBSERVATION_TYPE: "Percent Effect"
  DATA_VALUE: "9.72%"
- COMPOUND: "CC(C)Cc1ncc2c(n1)CN(c1cc(NCCO)nc(N)n1)C2"
  OBSERVATION_TYPE: "Percent Effect"
  DATA_VALUE: "-165%"

----------
Target: Sialic acid-binding Ig-like lectin 9 (Homo sapiens) (UniProt Q9Y336)
Sequence (Q9Y336 whole entry): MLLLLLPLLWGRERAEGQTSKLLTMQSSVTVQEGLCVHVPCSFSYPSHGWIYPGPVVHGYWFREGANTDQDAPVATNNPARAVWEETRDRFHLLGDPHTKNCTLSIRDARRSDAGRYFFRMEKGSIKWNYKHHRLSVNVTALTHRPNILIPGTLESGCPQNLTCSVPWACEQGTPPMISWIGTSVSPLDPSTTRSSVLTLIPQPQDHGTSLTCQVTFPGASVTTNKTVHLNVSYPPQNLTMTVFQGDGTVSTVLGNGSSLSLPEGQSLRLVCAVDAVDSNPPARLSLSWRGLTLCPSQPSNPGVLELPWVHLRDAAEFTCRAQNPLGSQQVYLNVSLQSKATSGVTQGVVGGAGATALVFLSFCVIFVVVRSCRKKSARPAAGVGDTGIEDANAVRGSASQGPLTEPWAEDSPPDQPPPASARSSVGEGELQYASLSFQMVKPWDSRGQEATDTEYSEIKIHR
Assay: Hs-Siglec9 ALPHAscreen SOP 20170721
Parameters: scale not given: direction of the effect not stated beside the values
Conditions: 10 µM
Catalogue of compounds with associated Percent Effect

- COMPOUND: "Cn1cc(CN2CCCC23CCN(C(=O)c2cccn2C)CC3)cn1"
  Percent Effect [%]: -3.73
- COMPOUND: "CC(=O)NC1CCCN(C(=O)NCc2cccnc2-n2cccn2)C1 (stereo unspecified)"
  Percent Effect [%]: -0.777
- COMPOUND: "CN1CC(c2ccccc2)CC2(CCN(CC(=O)N(C)C)CC2)C1 (stereo unspecified)"
  Percent Effect [%]: 9.32
- COMPOUND: "Cc1ncncc1C(=O)Nc1cnn(CC(=O)NC2CCCC2)c1"
  Percent Effect [%]: 2.3
- COMPOUND: "O=C(c1ccco1)N1CCC2(CCC(=O)N2Cc2cccc(F)c2)CC1"
  Percent Effect [%]: 3
- COMPOUND: "CN(CC(=O)Nc1ccc(Br)cn1)C(=O)Cc1ccc(O)cc1"
  Percent Effect [%]: 0.45
